// provenance: ChEMBL document CHEMBL4888484

Test system: Plasmodium falciparum
Assay: Hit confirmation in dose-response curve in NF54 nanoGlo assay, at 72h
Format: functional, organism-based, Erythrocyte
Parameters: timepoint 72 hour
Details: Plasmodium falciparum, NF54, Erythrocyte, 72 h
pIC50: −log10 of the molar value.
Could you label it satisfied if measured pIC50 is 6 or higher, and not satisfied otherwise?

>  <entrySmiles>
Oc1ccccc1CCN[C@H]1CCc2ccc(F)cc21

>  <system>
Plasmodium falciparum

>  <className>
satisfied

$$$$
>  <entrySmiles>
CCC[N+]1(CC#C[C@@](O)(c2ccccc2)C2(C)CCCC2)CCCCC1

>  <system>
Plasmodium falciparum

>  <className>
not satisfied

$$$$
>  <entrySmiles>
O=C(Nc1cc(N2CCCS2(=O)=O)ccc1O)c1cccc(Oc2cccc(C(F)(F)F)c2)c1

>  <system>
Plasmodium falciparum

>  <className>
satisfied

$$$$
>  <entrySmiles>
Cc1nc(N2CCC(c3nc(-c4ccccc4)no3)CC2)c2c(C)noc2n1

>  <system>
Plasmodium falciparum

>  <className>
not satisfied

$$$$
>  <entrySmiles>
CCc1c2c(=O)n(-c3nc4ccccc4s3)[nH]c2cc(=O)n1CCCN1CCOCC1

>  <system>
Plasmodium falciparum

>  <className>
not satisfied

$$$$
>  <entrySmiles>
COc1ccc(-c2c(C(F)(F)F)n[nH]c2-c2ccc(OCc3ccccc3F)cc2O)cc1

>  <system>
Plasmodium falciparum

>  <className>
not satisfied

$$$$

Task: Is the recorded value of pIC50 equal to or greater than 6 for this compound? "CC1([C@@](O)(C#CC[N+]2(C)CCCCC2)c2ccccc2)CCCC1"
Result: not satisfied

Task: Please give the result for "O[C@@H](CNCc1ccsc1C(F)(F)F)c1cc(Cl)c2c(c1)OCCO2" too.
Result: not satisfied

Task: Please give the result for "CNc1nc(NCc2ccccc2)nc2ccccc12" too.
Result: not satisfied
